Measured inhibition by item
Molecular target: Pantothenate synthetase (Mycobacterium tuberculosis (strain ATCC 25618 / H37Rv)) (UniProt P9WIL5)
Sequence (P9WIL5 whole entry, looked up): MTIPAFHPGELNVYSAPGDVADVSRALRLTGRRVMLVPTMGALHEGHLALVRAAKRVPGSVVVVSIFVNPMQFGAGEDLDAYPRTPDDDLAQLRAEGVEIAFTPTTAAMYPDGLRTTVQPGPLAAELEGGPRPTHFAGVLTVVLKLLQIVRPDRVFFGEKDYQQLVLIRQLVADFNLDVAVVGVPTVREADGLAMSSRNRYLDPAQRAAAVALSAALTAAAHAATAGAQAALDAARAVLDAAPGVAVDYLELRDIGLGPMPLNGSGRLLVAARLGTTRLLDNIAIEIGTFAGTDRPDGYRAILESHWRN
Assay: Coupled enzyme confirmation of inhibitors against recombinant Mtb PanC (AID 375);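 note: 0% = full reaction with vehicle and 100% = no enzyme background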
Details: coupled enzyme assay; at 10 µM, stronger effect = higher value
Please respond with the number in % and leave the unit unwritten.

# Molecule, Endpoint Unit, inhibition
measured = [
    ("CCn1c(CCNC(=O)c2ccc(OC)c(OC)c2)nc2ccccc21", "%", 3),
    ("CN1CCN(C2=Nc3ccccc3Oc3ccc(Cl)cc32)CC1", "%", 4),
    ("COCCNC(=O)CN(C)S(=O)(=O)c1ccc(Br)cc1", "%", 0),
    ("COc1ccc(OC)c(S(=O)(=O)N2CCN(c3c(C)cccc3C)CC2)c1", "%", 1),
    ("COc1ccc2nc(CC(C)(C)CC(=O)O)c[n+]([O-])c2c1", "%", 10),
]

What the record says about Cc1cnc(C(=O)NCCc2ccc(S(=O)(=O)NC(=O)NC3CCCCC3)cc2)cn1 : inhibition is 5

What the record says about C=CCN(C(=O)CNC(=O)c1ccco1)C(C(=O)NC1CCCCC1)c1ccccc1F (configuration not stated) : inhibition is 0

What the record says about Cc1sc2nc(SCc3nc4ccccc4[nH]3)n(Cc3ccco3)c(=O)c2c1C : inhibition is 2

----------
Measured inhibition by item
Target: Pantothenate synthetase (Mycobacterium tuberculosis (strain ATCC 25618 / H37Rv)) (UniProt P9WIL5)
Test: Coupled enzyme confirmation of inhibitors against recombinant Mtb PanC (AID 375);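 note: 0% = full reaction with vehicle and 100% = no enzyme background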
Details: coupled enzyme assay; at 10 µM, stronger effect = higher value
Activity calls are given as the source filed them. No rule for the calls is given here.

What the record says about COc1cc(-c2c(C#N)c(N)nc3c2CCCC3)cc(OC)c1OC : inhibition is 5% (inactive)

What the record says about CCOC(=O)Cc1nnc2c(Nc3ccccc3F)nc3nonc3n12 : inhibition is 7% (inactive)

What the record says about CCN(CCCNC(=O)C1CCCN(S(=O)(=O)c2cnc[nH]2)C1)c1ccccc1 (stereo not given) : inhibition is 1% (inactive)

What the record says about COc1nc2ccc(C)cc2cc1-c1noc(-c2cccnc2)n1 : inhibition is 4% (inactive)

What the record says about CCn1c(=O)c(=O)[nH]c2cc(C(=O)N3CCN(c4ccccc4F)CC3)ccc21 : inhibition is 4% (inactive)

What the record says about COc1ccc(CC(=O)NC2CCN(CC(=O)Nc3ccc4c(c3)OCCO4)CC2)cc1OC : inhibition is 0% (inactive)

----------
Target: Pantothenate synthetase (Mycobacterium tuberculosis (strain ATCC 25618 / H37Rv)) (UniProt P9WIL5)
Test: Coupled enzyme confirmation of inhibitors against recombinant Mtb PanC (AID 375);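 note: 0% = full reaction with vehicle and 100% = no enzyme background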
Conditions: coupled enzyme assay; at 10 µM, stronger effect = higher value
Measured inhibition by item
Please respond with the number in % and leave the unit unwritten.

Examples from the recorded data:
# Compound, inhibition [%]
measured = [
    ("COc1ccc(CCN2C(=O)C3C4C=CC(C4)C3C2=O)cc1OC (stereo not drawn)", 0),
    ("CC(C)(C)NC(=O)C(Cc1ccccc1)NS(=O)(=O)c1cccc2nsnc12 (stereo not drawn)", 0),
    ("O=C1NC(c2ccco2)Nc2ccccc21 (stereo not drawn)", 0),
    ("O=C(CCc1nc2ccccc2s1)OCC(=O)N1CCN(C(=O)c2ccco2)CC1", 4),
    ("Cc1ccnc2c(N3C(=O)C4C5C=CC(C5)C4(C)C3=O)cccc12 (stereo not drawn)", 0),
    ("CNS(=O)(=O)c1cccc(C(=O)OCC(=O)c2cc(C)n(-c3ccc4c(c3)OCO4)c2C)c1", 0),
    ("COCCOC(=O)C1=C(C)N=c2s/c(=C\\c3cccs3)c(=O)n2C1c1cccs1 (stereo not drawn)", 1),
    ("O=C(NC1(C(F)(F)F)C(=O)Nc2c1c(=O)[nH]c(=O)n2Cc1ccco1)C1CCCCC1 (stereo not drawn)", 0),
    ("Nc1ccc(S(=O)(=O)c2cccc(N)c2)cc1", 8),
    ("N#CCSCC(=O)Nc1ccc(F)cc1", 0),
]

What the record says about O=c1n(CCCN2CCN(c3cccc(Cl)c3)CC2)nc2ccccn12 : inhibition is 0

What the record says about CC(=O)Nc1ccc(NC(=O)c2cc(C)nn2-c2ccccc2)cc1 : inhibition is 2

What the record says about C=CCn1c(SCC(=O)C(C)(C)C)nnc1-c1ccccn1 : inhibition is 3

What the record says about Cc1nc2c(-c3ccc(F)cc3)c(C)nn2c(C)c1CCC(=O)NC(C)CCc1ccco1 (stereo not drawn) : inhibition is 0

What the record says about COc1cccc(C(c2nnnn2Cc2ccccc2)N2CCN(C(=O)c3ccco3)CC2)c1OC (stereo not drawn) : inhibition is 4

What the record says about CCOc1ncccc1C(=O)Nc1ccc2c(C)cc(=O)oc2c1 : inhibition is 7

What the record says about NS(=O)(=O)c1ccc(CCNC(=O)CCC2COc3ccccc3O2)cc1 (stereo not drawn) : inhibition is 0

What the record says about CN(C)CCCN1c2ccccc2Sc2ccc(C(F)(F)F)cc21 : inhibition is 0

What the record says about O=C(Cn1cc2c(n1)CCCC2)NCCc1ccccc1 : inhibition is 0

What the record says about O=C(NCc1cccs1)C1CC(=O)N(C2CCCC2)C1 (stereo not drawn) : inhibition is 2

What the record says about CC(C)CNC(=O)c1c(N)n(/N=C/c2ccccn2)c2nc3ccccc3nc12 : inhibition is 0

What the record says about Cc1cnc(C(=O)Nc2ccccc2-n2cccc2)cn1 : inhibition is 3

What the record says about CCn1c(SCC(=O)Nc2ccc(Cl)cc2)nnc1C1CC1 : inhibition is 0

----------
Test: HUVEC growth inhibition – cell-based, human, primary screen (AID 575);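 note: 100% = median of untreated cell wells with 0.1% DMSO on each plate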
Conditions: HUVEC proliferation, CellTiter-Glo luminescence, 72 h; at 10 µM; stronger effect = lower value
Experimental Endpoint: viability (%)
Please respond with the number in % and leave the unit unwritten.

# Compound, viability (%)
rows = [
    ("CC(CCc1ccccc1)NC(C)C(O)c1ccc(O)cc1 (stereo unspecified)", 87.5),
]

What the record says about CCN1c2nc3c(C)cccn3c(=O)c2CC2(C(=O)N(C)C(=O)N(C)C2=O)C1C (stereo unspecified) : viability is 88.9

What the record says about C[C@H]1OC[C@@H](C[N+](C)(C)C)O1 : viability is 99.6

What the record says about CN1CCC(OC(=O)C2c3ccccc3Oc3ccccc32)CC1 : viability is 64.3

What the record says about Cc1cc(OCC(=O)O)c2c3c(c(=O)oc2c1)CCCC3 : viability is 85.9

What the record says about C#CCN(C)C(C)Cc1ccccc1 (stereo unspecified) : viability is 88.3

----------
Target: Pantothenate synthetase (Mycobacterium tuberculosis (strain ATCC 25618 / H37Rv)) (UniProt P9WIL5)
Assay: Coupled enzyme confirmation of inhibitors against recombinant Mtb PanC (AID 375);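 note: 0% = full reaction with vehicle and 100% = no enzyme background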
Details: coupled enzyme assay; at 10 µM, stronger effect = higher value
Experimental Endpoint: inhibition (%)
Please respond with the number in % and leave the unit unwritten.

Examples from the recorded data:
# Compound, Result Number
measured = [
    ("CCC(C)C(NC(=O)C1CCC(C)CC1)C(=O)NCc1cccnc1 (stereo unspecified)", 6),
    ("Cc1ccc(C)c(C2(O)CC(C)N(C)CC2C)c1 (stereo unspecified)", 0),
    ("O=C(CCNS(=O)(=O)c1cccc2nsnc12)NCc1cccs1", 1),
]

What the record says about COC(=O)c1ccc2c(c1)nc(C)n2CCO : inhibition is 0

What the record says about O=C(Cn1nc(Cc2cccnc2)c2ccccc2c1=O)NCC1CCCO1 (stereo unspecified) : inhibition is 0

What the record says about Cc1nnc(SCc2nc3ccccc3s2)n1-c1ccccc1 : inhibition is 3

----------
Biological target: Pantothenate synthetase (Mycobacterium tuberculosis (strain ATCC 25618 / H37Rv)) (UniProt P9WIL5)
Assay: Coupled enzyme confirmation of inhibitors against recombinant Mtb PanC (AID 375);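 note: 0% = full reaction with vehicle and 100% = no enzyme background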
Details: coupled enzyme assay; at 10 µM, stronger effect = higher value
Where inhibition equals or exceeds 3%, the correct label is YES; where it does not, the label is NO.

Here are 2 molecules together with their reported answers.
# Molecule, Cat
measured = [
    ("Cc1ccc2c(c1)-c1c(cnn1CC(=O)Nc1ccccc1N1CCN(C)CC1)CO2", "NO"),
    ("Cc1ccc(-n2ncc3c(=O)[nH]c(SC(C)C)nc32)cc1", "NO"),
]

Inquiry: Could you verify whether the entry O=C(CNS(=O)(=O)c1ccccc1)NCc1ccccn1 shows inhibition of no less than 3%?
Reply text: YES

Inquiry: Could you verify whether the entry COc1ccc(C)cc1-n1nnnc1SCC(=O)NC(=O)NCc1ccco1 shows inhibition of no less than 3%?
Reply text: YES

Inquiry: Could you verify whether the entry CCOc1cccc(-c2nnc3sc(COc4ccc(OC)cc4)nn23)c1 shows inhibition of no less than 3%?
Reply text: YES

Inquiry: Could you verify whether the entry Cc1ccc(Cn2nnnc2CN2CCC(O)(c3ccccc3F)CC2)cc1 shows inhibition of no less than 3%?
Reply text: NO

Inquiry: Could you verify whether the entry CC(C(=O)NCc1cccnc1)N1C(=O)c2ccccc2C1=O (stereo unspecified) shows inhibition of no less than 3%?
Reply text: NO

Inquiry: Could you verify whether the entry Cc1ccc(-c2nc3ncccc3o2)cc1NC(=O)c1ccco1 shows inhibition of no less than 3%?
Reply text: NO

Inquiry: Could you verify whether the entry CN1CCN(CC#CCC(O)(c2ccccc2)C2CCCC2)CC1 (stereo unspecified) shows inhibition of no less than 3%?
Reply text: NO

Inquiry: Could you verify whether the entry CCOc1ccc(OCC)c(NC(=O)CN2CCN(C(=O)c3ccco3)CC2)c1 shows inhibition of no less than 3%?
Reply text: NO
